Data provenance is ChEMBL document CHEMBL1799910.

test: Partition coefficient, log D of the compound at pH 7.4 by HPLC analysis; details: octanol/water
Entries annotated with measured logD
API doc: respond with a numeric literal and nothing else, no unit.

Some solved entries appear below for comparison.
compound: CC1(C)CCc2[nH]c3cc(Cl)ccc3c(=O)c2C1
logD: 2.8
--
compound: O=C1CC(c2ccc(Cl)cc2Cl)Cc2nc3ccc(Cl)cc3c(O)c21 (stereo not given)
logD: 3.1
--
compound: O=c1c2c([nH]c3c(Cl)c(Cl)ccc13)CCCC2
logD: 2.9
--
compound: Oc1c2c(nc3ccc(Br)cc13)CCCC2
logD: 2.1
--
compound: O=c1c2c([nH]c3cc(Br)ccc13)CCSC2
logD: 0.9
--
compound: CC(C)(C)c1cccc2c(=O)c3c([nH]c12)CCCC3
logD: 3.3

Proceeding to the next compound to report its logD.
## Task Which value of logD has been reported for "CC1(C)CCc2[nH]c3cccc(Cl)c3c(=O)c2C1" in the records?
## Result 2.4

* * *

test system: Plasmodium falciparum; assay: Resistance index, ratio of EC50 for chloroquine, mefloquine, pyrimethamine and atovaquone-resistant Plasmodium falciparum TM90-C2B to EC50 for chloroquine and pyrimethamine-resistant Plasmodium falciparum W2; format: functional
quantityKind: Ratio EC50
API doc: respond with a numeric literal and nothing else, no unit.

Some solved entries appear below for comparison.
smilesString: O=c1c2c([nH]c3ccc(-c4ccc(COc5ccc(OC(F)(F)F)cc5)cc4)cc13)CCSC2
numericResult: 22

smilesString: COc1cc2[nH]c3c(c(=O)c2cc1Cl)CCCC3
numericResult: 0.79

smilesString: O=c1c2c([nH]c3cc(F)cc(F)c13)CCCC2
numericResult: 2.72

smilesString: COc1cc2[nH]c3c(c(=O)c2cc1C)CCCC3
numericResult: 0.46

## Task Short answer please: Ratio EC50, Plasmodium falciparum, entry "O=c1c2c([nH]c3cc(F)ccc13)CCCC2"
## Result 1.76

## Task Short answer please: Ratio EC50, Plasmodium falciparum, entry "CC1(C)CCc2[nH]c3ccc(Cl)cc3c(=O)c2C1"
## Result 0.46

## Task Short answer please: Ratio EC50, Plasmodium falciparum, entry "COc1cc2[nH]c3c(c(=O)c2cc1Cl)CC(F)(F)CC3"
## Result 0.07

* * *

Entries annotated with measured Ratio EC50
test system: Plasmodium falciparum; test: Resistance index, ratio of EC50 for chloroquine, mefloquine, pyrimethamine and atovaquone-resistant Plasmodium falciparum TM90-C2B to EC50 for chloroquine and pyrimethamine-resistant Plasmodium falciparum W2; format: functional
API doc: respond with a numeric literal and nothing else, no unit.

Some solved entries appear below for comparison.
smilesString: Cc1ccc2c(=O)c3c([nH]c2c1)CC(C)(C)CC3
Ratio EC50: 0.66
--
smilesString: COc1cccc2[nH]c3c(c(=O)c12)CCCC3
Ratio EC50: 0.66

Proceeding to the next compound to report its Ratio EC50.
## Task Which value of Ratio EC50 has been reported for "COc1ccc2c(=O)c3c([nH]c2c1)CCCC3" in the records?
## Result 1.11

* * *

tested on: Plasmodium falciparum; experiment: Resistance index, ratio of EC50 for chloroquine, mefloquine, pyrimethamine and atovaquone-resistant Plasmodium falciparum TM90-C2B to EC50 for chloroquine and pyrimethamine-resistant Plasmodium falciparum W2; type: functional
quantityKind: Ratio EC50
API doc: respond with a numeric literal and nothing else, no unit.

Some solved entries appear below for comparison.
molecule: O=c1c2c([nH]c3ccccc13)CCCC2
Ratio EC50: 0.45
//
molecule: O=c1c2c([nH]c3ccc(-c4ccc(F)cc4F)cc13)CCSC2
Ratio EC50: 0.41
//
molecule: O=c1c2c([nH]c3ccc(Cl)cc13)CCCC2
Ratio EC50: 0.63

## Task Which value of Ratio EC50 has been reported for "Cc1cccc2[nH]c3c(c(=O)c12)CCCC3" in the records?
## Result 0.73

## Task Which value of Ratio EC50 has been reported for "COc1cc2[nH]c3c(c(=O)c2cc1OC)CCCC3" in the records?
## Result 0.38
